- procedure.text: rapamycin-like changes in RPL19A-GFP expression – cell-based, S. cerevisiae, multiplex flow cytometry, primary screen (AID 1862);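 note: lower values mimic rapamycin by blocking the RPL19A rise seen in DMSO cells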
- run.conditions: S. cerevisiae RPL19A-GFP strain, flow cytometry fluorescence, 3 h; at 10 µM; stronger effect = lower value
Results filed as inconclusive are left out. Activity calls are given as the source filed them. Cut-off read from the data, not from the text of the source: active = percent of DMSO control GFP below about 86%; inactive = the rest, inconclusive results apart.
measured.metric: percent of DMSO control GFP

| molecule | measured.metric | test.value |
| --- | --- | --- |
| CCN(CCCCOC(=O)c1ccc(OC)c(OC)c1)C(C)Cc1ccc(OC)cc1 (stereo not drawn) | percent of DMSO control GFP | 102% (inactive) |
| COc1ccc(NC(=O)C2CCCN2C(=O)OC(C)(C)C)cc1 (stereo not drawn) | percent of DMSO control GFP | 102% (inactive) |
| CC(C)OC(=O)CC12CN3CN(C1)CC(CC(=O)OC(C)C)(C3)C2=O | percent of DMSO control GFP | 99.5% (inactive) |
| COc1ccccc1C(=O)Oc1ccc2c(c1)O/C(=C\c1ccncc1)C2=O | percent of DMSO control GFP | 94.7% (inactive) |
| COc1ccc(/C=C/C(=O)Nc2ccccc2C(=O)O)cc1OC | percent of DMSO control GFP | 111% (inactive) |
| CCCc1c(OCCCCc2nn[nH]n2)ccc(C(C)=O)c1O | percent of DMSO control GFP | 107% (inactive) |
| CC1(C)CC(=O)C(C2=NC(C)(C)Cc3ccccc32)=C(O)C1 | percent of DMSO control GFP | 103% (inactive) |
| CC(=O)Nc1c(I)c(NC(C)=O)c(I)c(C(=O)O)c1I | percent of DMSO control GFP | 89.3% (inactive) |
| CCOc1ccc(CC2CCC(=O)NC2=O)cc1 (stereo not drawn) | percent of DMSO control GFP | 103% (inactive) |
| CC(N=C(NC#N)Nc1ccncc1)C(C)(C)C (stereo not drawn) | percent of DMSO control GFP | 102% (inactive) |
| CC1CCN(CCOCCOc2ccccc2Br)CC1 | percent of DMSO control GFP | 102% (inactive) |
| N#C/C(C(N)=O)=c1/ccc2c(c1)N1C3=C(CCCC3)CC3CCCCC31N=2 (stereo not drawn) | percent of DMSO control GFP | 104% (inactive) |
| Cc1cc(Cl)cc2c1NC(=O)[C@]21[C@@H]2C(=O)N(Cc3ccccc3)C(=O)[C@@H]2[C@@H]2CCCN21 | percent of DMSO control GFP | 96.2% (inactive) |
| O=C(O)C1[C@H]2C(=O)N(C3CCCC3)C[C@]23C=C[C@H]1O3 (stereo partly drawn) | percent of DMSO control GFP | 99.5% (inactive) |
| COc1ccc(CC(=O)Nc2cccc(C(=O)Nc3ccccc3C(=O)O)c2)cc1OC | percent of DMSO control GFP | 103% (inactive) |
| CC(=O)N(CCC(Cc1ccccc1)c1ccco1)Cc1ccco1 (stereo not drawn) | percent of DMSO control GFP | 88.7% (inactive) |
| COc1ccc(CNC(=O)C2CCCN2C)cc1OC (stereo not drawn) | percent of DMSO control GFP | 98.8% (inactive) |
| O=C(O)c1cc2cc(Cl)cc(Cl)c2oc1=O | percent of DMSO control GFP | 97.9% (inactive) |
| CCn1nc(C(=O)O)c(=O)c2cc3c(cc21)OCO3 | percent of DMSO control GFP | 103% (inactive) |
| CC12COC3(C(=O)Nc4ccc(F)cc4)CC1CCC32C (stereo not drawn) | percent of DMSO control GFP | 94.2% (inactive) |
| O=c1cc(-c2ccccc2)oc2cc(OCc3ccccc3)cc(O)c12 | percent of DMSO control GFP | 91.7% (inactive) |
| CC1CCc2cc(F)cc3c(=O)c(C(=O)O)cn1c23 (stereo not drawn) | percent of DMSO control GFP | 99% (inactive) |
| O=C(O)COc1ccc2occ(C(=O)c3ccccc3)c2c1 | percent of DMSO control GFP | 99.8% (inactive) |

From: PubChem BioAssay
